Tested on: HCC-78
Test: relative viability (nuclei count vs DMSO), 5 days (fraction); higher = more cells survive
Details: first compound 2 µM
ENDPOINT_LABEL: relative viability
Answers are plain numbers.

- MOLECULE: "CN1CCN(CCOc2cc(OC3CCOCC3)c3c(Nc4c(Cl)ccc5c4OCO5)ncnc3c2)CC1 [Saracatinib] + CS(=O)(=O)CCNCc1ccc(-c2ccc3ncnc(Nc4ccc(OCc5cccc(F)c5)c(Cl)c4)c3c2)o1 [Lapatinib] (partner 2 µM)"
  relative viability: 0.778
- MOLECULE: "Cc1csc(=NC2CCCCC2)n1/N=C/c1ccc(O)c(O)c1O [MIM1] + Nc1ncn([C@H]2C[C@H](O)[C@@H](CO)O2)c(=O)n1 [Decitabine] (partner 2 µM)"
  relative viability: 0.728

For every item in the list below, what is its measured relative viability?
1. Cc1csc(=NC2CCCCC2)n1/N=C/c1ccc(O)c(O)c1O [MIM1] + CC(=O)Nc1cccc(-n2c(=O)n(C3CC3)c(=O)c3c(Nc4ccc(I)cc4F)n(C)c(=O)c(C)c32)c1 [Trametinib] (partner 0.02 µM)
2. CN1CCN(CCOc2cc(OC3CCOCC3)c3c(Nc4c(Cl)ccc5c4OCO5)ncnc3c2)CC1 [Saracatinib] + O=C(CCCCCCC(=O)Nc1ccccc1)NO [Vorinostat] (partner 1 µM)

stdout:
1. 0.778
2. 0.427

stdin: Which measured relative viability value corresponds to Cc1csc(=NC2CCCCC2)n1/N=C/c1ccc(O)c(O)c1O [MIM1] + CC(C)C[C@H](NC(=O)[C@H](Cc1ccccc1)NC(=O)c1cnccn1)B(O)O [Bortezomib] (partner 0.002 µM) ?
stdout: 0.559

----------
Test system: LU99A
Assay: relative viability (nuclei count vs DMSO), 5 days (fraction); higher = more cells survive
Conditions: first compound 8 µM
ENDPOINT_LABEL: relative viability
Numbers only.

# example entries with known answers
- COMPOUND: "Nc1cccc2c1CN(C1CCC(=O)NC1=O)C2=O (stereo unspecified) [Lenalidomide] + COc1cc2c(Oc3ccc(NC(=O)C4(C(=O)Nc5ccc(F)cc5)CC4)cc3F)ccnc2cc1OCCCN1CCOCC1 [Foretinib] (partner 0.25 µM)"
  relative viability: 0.599
- COMPOUND: "Nc1cccc2c1CN(C1CCC(=O)NC1=O)C2=O (stereo unspecified) [Lenalidomide] + C[C@]1(O)C[C@@H](c2nc(-c3ccc4ccc(-c5ccccc5)nc4c3)c3c(N)nccn32)C1 [Linsitinib] (partner 1 µM)"
  relative viability: 0.352
- COMPOUND: "Nc1cccc2c1CN(C1CCC(=O)NC1=O)C2=O (stereo unspecified) [Lenalidomide] + COc1cccc2cc(-c3nc([C@H]4CC[C@H](C(=O)O)CC4)n4ncnc(N)c34)[nH]c12 [OSI-027] (partner 0.5 µM)"
  relative viability: 0.285
- COMPOUND: "Nc1cccc2c1CN(C1CCC(=O)NC1=O)C2=O (stereo unspecified) [Lenalidomide] + NC(=O)Nc1cc(-c2cccc(F)c2)sc1C(=O)N[C@H]1CCCNC1 [AZD7762] (partner 0.2 µM)"
  relative viability: 0.257
- COMPOUND: "Nc1cccc2c1CN(C1CCC(=O)NC1=O)C2=O (stereo unspecified) [Lenalidomide] + CS(=O)(=O)N1CCN(Cc2cc3nc(-c4cccc5[nH]ncc45)nc(N4CCOCC4)c3s2)CC1 [Pictilisib] (partner 1 µM)"
  relative viability: 0.238

Consider the record given below.
stdin: Which measured relative viability value corresponds to Nc1cccc2c1CN(C1CCC(=O)NC1=O)C2=O (stereo unspecified) [Lenalidomide] + CS(=O)(=O)CCNCc1ccc(-c2ccc3ncnc(Nc4ccc(OCc5cccc(F)c5)c(Cl)c4)c3c2)o1 [Lapatinib] (partner 2 µM) ?
stdout: 0.56

----------
Tested on: Calu-6
Test: relative viability (nuclei count vs DMSO), 5 days (fraction); higher = more cells survive
Conditions: first compound 0.2 µM
ENDPOINT_LABEL: relative viability
One number for each entry.

# example entries with known answers
- COMPOUND: "CN1CCN(CCOc2cc(OC3CCOCC3)c3c(Nc4c(Cl)ccc5c4OCO5)ncnc3c2)CC1 [Saracatinib] + C[C@]1(O)C[C@@H](c2nc(-c3ccc4ccc(-c5ccccc5)nc4c3)c3c(N)nccn32)C1 [Linsitinib] (partner 1 µM)"
  TARGET_OR_TEST_SYSTEM: "Calu-6"
  relative viability: 0.824
- COMPOUND: "Cc1csc(=NC2CCCCC2)n1/N=C/c1ccc(O)c(O)c1O [MIM1] + CC1(C)CCC(c2ccc(Cl)cc2)=C(CN2CCN(c3ccc(C(=O)NS(=O)(=O)c4ccc(N[C@H](CCN5CCOCC5)CSc5ccccc5)c(S(=O)(=O)C(F)(F)F)c4)cc3)CC2)C1 [Navitoclax] (partner 0.5 µM)"
  TARGET_OR_TEST_SYSTEM: "Calu-6"
  relative viability: 0.772
- COMPOUND: "CCNC(=O)c1noc(-c2cc(C(C)C)c(O)cc2O)c1-c1ccc(CN2CCOCC2)cc1 [Luminespib] + Cc1nc(NC(=O)N2CCC[C@H]2C(N)=O)sc1-c1ccnc(C(C)(C)C(F)(F)F)c1 [Alpelisib] (partner 2 µM)"
  TARGET_OR_TEST_SYSTEM: "Calu-6"
  relative viability: 0.12

Consider the record given below.
stdin: Which measured relative viability value corresponds to CN1CCN(CCOc2cc(OC3CCOCC3)c3c(Nc4c(Cl)ccc5c4OCO5)ncnc3c2)CC1 [Saracatinib] + CS(=O)(=O)CCNCc1ccc(-c2ccc3ncnc(Nc4ccc(OCc5cccc(F)c5)c(Cl)c4)c3c2)o1 [Lapatinib] (partner 2 µM) ?
stdout: 0.839

----------
System: COR-L23
Assay: relative viability (nuclei count vs DMSO), 5 days (fraction); higher = more cells survive
Settings: first compound 0.253 µM
ENDPOINT_LABEL: relative viability
One number for each entry.

# example entries with known answers
- COMPOUND: "Nc1cccc2c1CN(C1CCC(=O)NC1=O)C2=O (stereo not given) [Lenalidomide] + CS(=O)(=O)N1CCN(Cc2cc3nc(-c4cccc5[nH]ncc45)nc(N4CCOCC4)c3s2)CC1 [Pictilisib] (partner 1 µM)"
  ENDPOINT_LABEL: "relative viability"
  QUANTITATIVE_RESULT: 0.778
- COMPOUND: "Nc1cccc2c1CN(C1CCC(=O)NC1=O)C2=O (stereo not given) [Lenalidomide] + CC1(C)CCC(c2ccc(Cl)cc2)=C(CN2CCN(c3ccc(C(=O)NS(=O)(=O)c4ccc(N[C@H](CCN5CCOCC5)CSc5ccccc5)c(S(=O)(=O)C(F)(F)F)c4)cc3)CC2)C1 [Navitoclax] (partner 0.5 µM)"
  ENDPOINT_LABEL: "relative viability"
  QUANTITATIVE_RESULT: 0.986
- COMPOUND: "Nc1cccc2c1CN(C1CCC(=O)NC1=O)C2=O (stereo not given) [Lenalidomide] + Cc1cc(Nc2cc(N3CCN(C)CC3)nc(Sc3ccc(NC(=O)C4CC4)cc3)n2)n[nH]1 [Tozasertib] (partner 0.1 µM)"
  ENDPOINT_LABEL: "relative viability"
  QUANTITATIVE_RESULT: 0.255
- COMPOUND: "Nc1cccc2c1CN(C1CCC(=O)NC1=O)C2=O (stereo not given) [Lenalidomide] + N=C(N)NC(=N)NCCc1ccccc1 [Phenformin] (partner 250 µM)"
  ENDPOINT_LABEL: "relative viability"
  QUANTITATIVE_RESULT: 0.412

stdin: Which measured relative viability value corresponds to Nc1cccc2c1CN(C1CCC(=O)NC1=O)C2=O (stereo not given) [Lenalidomide] + Cc1nc(Nc2ncc(C(=O)Nc3c(C)cccc3Cl)s2)cc(N2CCN(CCO)CC2)n1 [Dasatinib] (partner 0.075 µM) ?
stdout: 0.541

----------
So I've got a bunch of compounds here, and I need their relative viability values.
Tested on: NCI-H1944
Assay: relative viability (nuclei count vs DMSO), 5 days (fraction); higher = more cells survive
Settings: first compound 0.253 µM
One number for each entry.

- COMPOUND: "Nc1cccc2c1CN(C1CCC(=O)NC1=O)C2=O (stereo not given) [Lenalidomide] + Nc1nc2[nH]cc(CCc3ccc(C(=O)N[C@@H](CCC(=O)O)C(=O)O)cc3)c2c(=O)[nH]1 [Pemetrexed] (partner 0.2 µM)"
  relative viability: 0.642

For every item in the list below, what is its measured relative viability?
1. Nc1cccc2c1CN(C1CCC(=O)NC1=O)C2=O (stereo not given) [Lenalidomide] + CS(=O)(=O)N1CCN(Cc2cc3nc(-c4cccc5[nH]ncc45)nc(N4CCOCC4)c3s2)CC1 [Pictilisib] (partner 1 µM)
2. Nc1cccc2c1CN(C1CCC(=O)NC1=O)C2=O (stereo not given) [Lenalidomide] + C[C@@H](Oc1cc(-c2cnn(C3CCNCC3)c2)cnc1N)c1c(Cl)ccc(F)c1Cl [Crizotinib] (partner 1 µM)
3. Nc1cccc2c1CN(C1CCC(=O)NC1=O)C2=O (stereo not given) [Lenalidomide] + CS(=O)(=O)CCNCc1ccc(-c2ccc3ncnc(Nc4ccc(OCc5cccc(F)c5)c(Cl)c4)c3c2)o1 [Lapatinib] (partner 2 µM)
4. Nc1cccc2c1CN(C1CCC(=O)NC1=O)C2=O (stereo not given) [Lenalidomide] + Cc1cc(Nc2cc(N3CCN(C)CC3)nc(Sc3ccc(NC(=O)C4CC4)cc3)n2)n[nH]1 [Tozasertib] (partner 0.1 µM)

stdout:
[0.382, 1.1, 0.932, 0.234]
